- assay-target: T1, 4H566-AA
- T1 chain: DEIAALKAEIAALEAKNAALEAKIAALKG
- assay-summary: two-hybrid library CCmax;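 further: natural log of median RNA to DNA barcode read ratio; higher means stronger binding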
- details: mean of both orientations
endpoint-name: interaction score

Here are 10 binders together with their reported answers.
- binder: "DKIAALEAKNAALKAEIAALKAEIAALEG [4H2505-AA]"
  interaction score: -0.341
- binder: "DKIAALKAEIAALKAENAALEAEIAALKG [4H2642-AA]"
  interaction score: 1.3
- binder: "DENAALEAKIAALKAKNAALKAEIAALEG [4H1401-AA]"
  interaction score: 1.79
- binder: "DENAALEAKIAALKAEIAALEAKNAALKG [4H1352-AA]"
  interaction score: -1.51
- binder: "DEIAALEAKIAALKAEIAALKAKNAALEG [4H335-AA]"
  interaction score: -1.09
- binder: "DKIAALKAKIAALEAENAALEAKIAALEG [4H2837-AA]"
  interaction score: 1.66
- binder: "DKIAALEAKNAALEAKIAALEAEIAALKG [4H2466-AA]"
  interaction score: -1.51
- binder: "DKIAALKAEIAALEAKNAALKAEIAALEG [4H2617-AA]"
  interaction score: 2.42
- binder: "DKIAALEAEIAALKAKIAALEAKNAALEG [4H2151-AA]"
  interaction score: -1.47
- binder: "DEIAALEAEIAALEAKIAALKAKNAALKG [4H48-AA]"
  interaction score: -0.519

a = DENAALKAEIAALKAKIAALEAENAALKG [4H1636-AA]
b = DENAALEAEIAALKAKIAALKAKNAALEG [4H1135-AA]
# input Could you point out whether the larger interaction score belongs to a or to b ? Refer to your chosen item by its label in the answer.
# output b
(b: -0.252, a: -1.41)

I = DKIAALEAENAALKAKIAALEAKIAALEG [4H2277-AA]
II = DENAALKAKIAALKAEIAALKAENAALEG [4H1867-AA]
# input Compare reported interaction score values for I and II . Which is lower? Refer to your chosen item by its label in the answer.
# output II
